# Test Target: T1, recombinant human IL-17A (SEQ ID NO: 76) (human, UniProt Q16552 24-155, limits assumed)
# T1 sequence: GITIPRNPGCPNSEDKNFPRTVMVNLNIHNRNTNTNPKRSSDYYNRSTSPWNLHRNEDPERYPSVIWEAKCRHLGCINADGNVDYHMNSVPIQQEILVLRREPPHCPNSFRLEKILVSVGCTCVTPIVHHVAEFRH
# Protocol: cell-based or functional assay
In this section, each of the binders is paired with its reported IC50, huGROα secretion by BJ cells; stimulus rhuIL-17A (0.5 nM).

Answered examples (4):
XAB2 (antibody, human IgG1, kappa, V domains shown) VH: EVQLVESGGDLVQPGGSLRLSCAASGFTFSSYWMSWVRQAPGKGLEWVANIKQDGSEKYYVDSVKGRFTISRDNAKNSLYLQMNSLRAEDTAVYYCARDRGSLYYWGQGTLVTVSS VL: AIQLTQSPSSLSASVGDRVTITCRPSQVIISALAWYQQKPGKAPKLLIYDASSLEQGVPSRFSGSVSGTDFTLTISSLQPEDFATYYCQQFDSYPLTFGGGTKVEIKR : 400 pM
XAB1 (antibody, human IgG1, kappa, V domains shown, human IgG1/kappa monoclonal antibody; also called parental XAB1; XAB1 IgG) VH: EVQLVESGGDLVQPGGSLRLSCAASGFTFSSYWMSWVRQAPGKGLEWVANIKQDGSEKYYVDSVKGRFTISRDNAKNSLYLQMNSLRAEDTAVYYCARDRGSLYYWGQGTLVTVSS VL: AIQLTQSPSSLSASVGDRVTITCRPSQGIISALAWYQQKPGKAPKLLIYDASSLENGVPSRFSGSGSGTDFTLTISSLQPEDFATYYCQQFNSYPLTFGGGTKVEIKR : 1390 pM
XAB4 (antibody, human IgG1, kappa, V domains shown, also called MB435 N56Q) VH: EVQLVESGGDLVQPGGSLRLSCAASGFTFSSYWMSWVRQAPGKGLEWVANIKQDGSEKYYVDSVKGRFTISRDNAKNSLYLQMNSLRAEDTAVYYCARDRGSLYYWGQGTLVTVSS VL: AIQLTQSPSSLSASVGDRVTITCRPSQGINWELAWYQQKPGKAPKLLIYDASSLEQGVPSRFSGSGSGTDFTLTISSLQPEDFATYYCQQFNSYPLTFGGGTKVEIKR : 440 pM
XAB5 (antibody, human IgG1, kappa, V domains shown) VH: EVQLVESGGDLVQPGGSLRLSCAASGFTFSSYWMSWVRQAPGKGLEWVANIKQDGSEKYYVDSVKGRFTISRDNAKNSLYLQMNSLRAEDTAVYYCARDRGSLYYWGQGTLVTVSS VL: AIQLTQSPSSLSASVGDRVTITCRPSQGINWELAWYQQKPGKAPKLLIYDASSLENGVPSRFSGSGSGTDFTLTISSLQPEDFATYYCQQFNSYPLTFGGGTKVEIKR : 460 pM

Inquiry: I would be grateful if you could share the reported IC50, huGROα secretion by BJ cells; stimulus rhuIL-17A (0.5 nM) for XAB3 (antibody, human IgG1, kappa, V domains shown, also called MB468 N56Q) VH: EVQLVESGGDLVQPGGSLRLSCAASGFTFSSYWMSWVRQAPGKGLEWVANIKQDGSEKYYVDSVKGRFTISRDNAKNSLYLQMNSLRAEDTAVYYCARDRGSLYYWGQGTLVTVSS VL: AIQLTQSPSSLSASVGDRVTITCRPSQGIYWELAWYQQKPGKAPKLLIYDASSLEQGVPSRFSGSGSGTDFTLTISSLQPEDFATYYCQQFNSYPLTFGGGTKVEIKR .
Reply text: 420 pM
